# assay protocol: Half life in ICR mouse at 10 mg/kg, po by LC-MS/MS method
# Format: ADME, organism-based
# conditions used: in vivo
property measured: half-life (h)
Give bare numbers, in h.

Q) Any idea what its half-life is? The compound is `C=CC(=O)Nc1cccc(-n2c(=O)c(=O)n(C(C)C)c3cnc(Nc4ccc(N5CCN(C)CC5)cc4OC)nc32)c1`
A) 1.1

###

# assay protocol: Clearance in ICR mouse at 1 mg/kg, iv by LC-MS/MS method
# Assay type: ADME, organism-based
# conditions used: in vivo
property measured: clearance (mL/min/kg)
One number for each entry, in mL/min/kg.

Q) Any idea what its clearance is? The compound is `C=CC(=O)Nc1cccc(-n2c(=O)c(=O)n(C(C)C)c3cnc(Nc4ccc(N5CCN(C)CC5)cc4OC)nc32)c1`
A) 117
